Reference for the values: paper PMC5920559

Biological target: SMN-luc fusion (UniProt P08659+Q16637)
Assay: SMN-luc protein stability with cycloheximide
Format: cell-based
Settings: with cycloheximide 10 µM, compound 10 µM
READOUT TYPE: stabilization of SMN-luc fusion

{"columns": ["COMPOUND", "TESTED TARGET", "READOUT TYPE", "MEAS VALUE"],
 "data": [
  ["O=C(Nc1ncc(C2(O)CCC2)s1)c1ccc(F)c(Cl)c1 [Compound 27]", "SMN-luc fusion (UniProt P08659+Q16637)", "stabilization of SMN-luc fusion", "stabilized"],
  ["CC(C)c1cc(C(=O)Nc2ccc(F)c(Cl)c2)no1 [Compound 4]", "SMN-luc fusion (UniProt P08659+Q16637)", "stabilization of SMN-luc fusion", "stabilized"],
  ["O=C(CCCCCCC(=O)Nc1ccccc1)NO [SAHA, suberoylanilide hydroxamic acid, reference compound]", "SMN-luc fusion (UniProt P08659+Q16637)", "stabilization of SMN-luc fusion", "Neither"],
  ["COc1cc2c(c(OC)c1OC)C(c1cc(Br)ccc1F)CC(=O)N2 (stereo not shown) [Compound 5, reference compound]", "SMN-luc fusion (UniProt P08659+Q16637)", "stabilization of SMN-luc fusion", "Neither"]
]}
